- Test system: P. falciparum mature gametocytes
- Assay Summary: Microscopic enumeration of gametocytes on Giemsa-stained smears
- Type: cell-based, Plasmodium falciparum
- Cond: Plasmodium falciparum, 48 h, read-out: IC50 gametocytes Microscopy examination
Test Readout: pIC50
// pIC50: -log10(molar conc.)

Q) Output measured pIC50 for this item: CCN(CC)CCCC(C)Nc1ccnc2cc(Cl)ccc12 (stereo not shown)
A) 4.55

====

- Assay Summary: Cytotoxicity, resazurin-based reductase assay
- Type: cell-based, human
- Cond: human, HepG2 cells; HepG2, 48 h exposure, resazurin; mean ± SD, 3–6 independent experiments
Test Readout: IC50 at 48 h

Some molecules with recorded IC50 at 48 h:
[
  {
    "Molecule": "C[C@H]1[C@@H](O)O[C@@H]2O[C@@]3(C)CC[C@H]4[C@H](C)CC[C@@H]1[C@@]24OO3 [Dihydroartemisinin]",
    "IC50 at 48 h": "> 50 µM"
  },
  {
    "Molecule": "CCc1nc(N)nc(N)c1-c1ccc(Cl)cc1 [Pyrimethamine]",
    "IC50 at 48 h": "> 50 µM"
  }
]

Turning now to a further molecule:
Q) Output measured IC50 at 48 h for this item: CCCCN(CCCC)CCC(O)c1cc2c(Cl)cc(Cl)cc2c2cc(C(F)(F)F)ccc12 (stereo not drawn) [Halofantrine]
A) > 50 µM
